Source listed as paper PMC10925993.

property: melting point

* Nc1nc(-c2ccc(OC(F)(F)F)cc2)nc(N2CCc3ccccc32)n1 | 195 to 196 °C
* Nc1nc(-c2cccs2)nc(N2CCc3ccccc3C2)n1 | 170 to 171 °C
* Nc1nc(-c2ccc(C(F)(F)F)cc2)nc(N2CCc3ccccc32)n1 | 227 to 228 °C
* COc1ccc(-c2nc(N)nc(N3CCN(C)CC3)n2)cc1 | 196 to 197 °C
* CC1CCN(c2nc(N)nc(-c3ccc(OC(F)(F)F)cc3)n2)CC1 | 152 to 153 °C
* CN(C)c1ccc(-c2nc(N)nc(N3CCc4ccccc4C3)n2)cc1 | 201 to 202 °C
* Cc1ccc(-c2nc(N)nc(N3CCN(C)CC3)n2)cc1 | 220 to 221 °C
* Nc1nc(-c2cccc([N+](=O)[O-])c2)nc(N2CCCC2)n1 | 207 to 208 °C
* Nc1nc(-c2cccc(Oc3ccccc3)c2)nc(N2CCc3ccccc3C2)n1 | 128 to 129 °C
* CN1CCN(c2nc(N)nc(-c3cccc(F)c3)n2)CC1 | 187 to 188 °C

Tell me measured melting point for `Nc1nc(-c2ccc(OCc3ccccc3)cc2)nc(N2CCCC2)n1` please.
201 to 202 °C

Note melting point for the molecule shown: `CC1CCN(c2nc(N)nc(-c3cccc(F)c3)n2)CC1`
125 to 126 °C
